test system: Bean (BN); experiment: Pre-emergence herbicide test; assay type: in vivo, Phaseolus vulgaris var. Black Valentine; conditions: Phaseolus vulgaris, 336 h, 8 lb/acre, two weeks after treatment

# structure, pest or weed control at 8966.8 g/ha
rows = [
    ("CCNC(=O)Nc1nnc(C(F)(F)F)s1", "100%"),
    ("CNC(=O)N(C)c1nnc(C(F)(F)F)s1", "100%"),
    ("CNC(=O)Nc1nnc(S(C)(=O)=O)s1", "90%"),
    ("CCc1nnc(NC(=O)N(C)C)s1", "10%"),
    ("CNC(=O)Nc1nnc(OC)s1", "60%"),
    ("CNC(=O)Nc1nnc(-c2cccc(Cl)c2)s1", "100%"),
    ("CSc1nnc(NC(=O)NC(C)C)s1", "50%"),
    ("CCSc1nnc(NC(=O)NC)s1", "80%"),
    ("CNC(=O)N(C)c1nnc(C(C)(C)C)s1", "100%"),
    ("C=CCNC(=O)Nc1nnc(C(F)(F)F)s1", "10%"),
    ("CNC(=O)Nc1nncs1", "60%"),
    ("CNC(=O)Nc1nnc(COC)s1", "70%"),
    ("CNC(=O)N(C)c1nnc(SC)s1", "100%"),
]
